System: promyelocytic leukemia cells HL60 (N-RasQ61L)
assay-remarks: Cell growth inhibition, suspension cells HL60
Type: cell-based
details: Homo sapiens, HL-60; 3.2 μM (****), 72 hours; read-out: HL-60 (NRasQ61L) % inhibition at 3.2 μM (****)

{"compound": "CC(=O)N1/C(=C\\c2cc(CNC3CCOCC3)c3ccccc3n2)C(=O)c2ccccc21", "unit-descriptor": "%", "inhibition at 3.2 µM": 95.1}
{"compound": "CC(=O)N1/C(=C\\c2cc(-c3cccc(-c4cnn(C)c4)c3)c3cc(CNC4CCOCC4)ccc3n2)C(=O)c2ccccc21", "unit-descriptor": "%", "inhibition at 3.2 µM": 97.3}
{"compound": "CC(=O)N1CCc2cc(-c3cc(/C=C4/C(=O)c5ccccc5N4C(C)=O)nc4ccc(CNC5CCOCC5)cc34)ccc2C1", "unit-descriptor": "%", "inhibition at 3.2 µM": 96.7}
{"compound": "CC(=O)N1/C(=C\\c2cc(-c3ccccc3-c3ccccc3)c3cc(C(N)=O)ccc3n2)C(=O)c2ccccc21", "unit-descriptor": "%", "inhibition at 3.2 µM": 94.6}
{"compound": "CC(=O)N1C(=Cc2cc(-c3ccc4c(c3)CCNC4=O)c3cc(C(=O)N4CCOCC4)ccc3n2)C(=O)c2ccccc21 (racemic)", "unit-descriptor": "%", "inhibition at 3.2 µM": 59.1}
{"compound": "CC(=O)N1/C(=C\\c2cc(-c3ccccc3-c3ccccc3)c3cc(CNC4CCOCC4)ccc3n2)C(=O)c2ccccc21", "unit-descriptor": "%", "inhibition at 3.2 µM": 97.2}
{"compound": "CC(=O)N1/C(=C\\c2cc(CN3CCOCC3)c3ccccc3n2)C(=O)c2ccccc21", "unit-descriptor": "%", "inhibition at 3.2 µM": 96.7}
{"compound": "CC(=O)N1/C(=C\\c2nc3ccc(C(=O)N4CCOCC4)cc3cc2-c2cnn(C)c2)C(=O)c2ccccc21", "unit-descriptor": "%", "inhibition at 3.2 µM": 75.1}
{"compound": "CC(=O)N1/C(=C\\c2nc3ccc(-c4nnn[nH]4)cc3cc2-c2cccc3ccccc23)C(=O)c2ccccc21", "unit-descriptor": "%", "inhibition at 3.2 µM": 36.7}
